- system: T1, Cynomolgus monkey CD98 ECD with C-terminal His-tag (SEQ ID NO: 127) (cynomolgus monkey, UniProt P08195 105-529 (human entry))
- T1 construct: The entry includes the linker and the polyhistidine tag; also called cyCD98 ECD
- T1 chain: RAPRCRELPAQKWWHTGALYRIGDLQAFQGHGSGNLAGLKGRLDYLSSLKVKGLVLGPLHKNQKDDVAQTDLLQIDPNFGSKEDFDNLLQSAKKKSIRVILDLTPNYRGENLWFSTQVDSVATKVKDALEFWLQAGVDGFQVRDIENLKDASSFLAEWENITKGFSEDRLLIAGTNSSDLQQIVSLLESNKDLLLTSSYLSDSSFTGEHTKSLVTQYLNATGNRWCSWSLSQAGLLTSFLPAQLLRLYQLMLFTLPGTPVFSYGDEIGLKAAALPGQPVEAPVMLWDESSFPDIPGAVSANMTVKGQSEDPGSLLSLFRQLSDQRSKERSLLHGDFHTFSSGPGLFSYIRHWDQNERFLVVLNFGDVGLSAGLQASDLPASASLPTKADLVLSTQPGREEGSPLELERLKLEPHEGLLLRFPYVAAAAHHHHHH
- assay.text: SPR (Biacore), recombinant CD98 ECD
Recorded kon values for a group of binders are listed next.
recorded.endpoint: kon (M⁻¹ s⁻¹)

# binder, recorded.endpoint, quantity.unit, measured
records = [
    ("huAb103 (antibody, V domains shown, Framework re-engineered humanized clone (parent huAb3v2), expressed as full-length IgG; also called haAb103) VH: EVQLVESGGGLVKPGGSLRLSCATSGFTFIDYYMSWVRQAPGKGLEWLGFIRNKAYGYTTEYSASVKGRFTISRDNSKSILYLQMNSLKTEDTAVYYCTRDRPAWFVYWGQGTLVTVSS VL: DIVMTQTPLSLPVTPGEPASISCKSSQSLLYSSNQKNYLAWYLQKPGQSPQLLIYWASTRESGVPDRFSGSGSGTDFTLKISRVEAEDVGVYYCQQYYSYPYTFGGGTKVEIK", "kon", "M⁻¹ s⁻¹", 31000),
    ("huAb101 (antibody, V domains shown, Framework re-engineered humanized clone (parent huAb3v1), expressed as full-length IgG) VH: EVQLVESGGGLVKPGGSLRLSCATSGFTFIDYYMSWVRQAPGKGLEWLGFIRNKANRYTTEYSASVKGRFTISRDNSKSILYLQMNSLKTEDTAVYYCTRDRPAWFVYWGQGTLVTVSS VL: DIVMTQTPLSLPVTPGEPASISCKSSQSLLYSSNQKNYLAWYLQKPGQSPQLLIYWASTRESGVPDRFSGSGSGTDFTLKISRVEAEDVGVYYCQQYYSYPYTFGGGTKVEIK", "kon", "M⁻¹ s⁻¹", 30000),
    ("huAb110 (antibody, human IgG1, kappa, L234A L235A, V domains shown, Framework re-engineered humanized clone (parent huAb15v6); also called CL-huAb110) VH: EVQLVQSGAEVKKPGASVKVSCKASGFTFSDYTMAWVRQAPGQGLEWVATIIYDARGTYYRDAVKGRFTITRDNSTSTLYLELSSLRSEDTAVYYCARQSDDTYYYWGYFDYWGQGTMVTVSS VL: DIVMTQTPLSLPVTPGEPASINCKSSQSLLFSGNQKNYLAWYLQKPGQSPQLLIYWASTRQSGVPDRFSGSGSGTDFTLKISRVEAEDVGIYYCQQYYSSPYTFGQGTKLEIKR", "kon", "M⁻¹ s⁻¹", 23000),
    ("huAb106 (antibody, V domains shown, Framework re-engineered humanized clone (parent huAb15v1), expressed as full-length IgG) VH: EVQLVQSGAEVKKPGASVKVSCKASGFTFSDYTMAWVRQAPGQGLEWVATIIYSGRGTYYRDAVKGRFTITRDNSTSTLYLELSSLRSEDTAVYYCARQSDHTYYYWGYFDYWGQGTMVTVSS VL: DIVMTQTPLSLPVTPGEPASINCKSSQSLLFSGNQKNYLAWYLQKPGQSPQLLIYWASTRQSGVPDRFSGSGSGTDFTLKISRVEAEDVGIYYCQQYYDVPYTFGQGTKLEIK", "kon", "M⁻¹ s⁻¹", 43000),
]
